Give polymerase ribozyme fitness (log ratio) for every item shown.
B1: TPR t1 (parent)
chain: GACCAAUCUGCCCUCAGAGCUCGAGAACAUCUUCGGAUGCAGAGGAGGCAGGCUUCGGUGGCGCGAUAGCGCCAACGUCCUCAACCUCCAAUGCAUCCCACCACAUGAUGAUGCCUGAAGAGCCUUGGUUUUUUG

Variants of: B1
assay_info: polymerase ribozyme fitness, log enrichment relative to wild type (log ratio); higher = more active; in vitro selection for triplet polymerase activity
# output: bare number, no unit

# input What value of polymerase ribozyme fitness (log ratio) has been reported for the following variant? U9G G42C G45A C85G
# output -4.6

# input Another variant to check: G17A A90C
# output -3.17

# input U54G G63A G69U U78G C102A U106G G120C , same question.
# output -6.62

# input Now the variant C15A A16U C20A C89G G117U
# output -3.6

# input Entry to check: C11U A26U G52C
# output -3.53

# input Item: C22A U81C
# output -5.67

# input Likewise for A18C C56A C82A C94U U106C ?
# output -4.93

# input One more variant: C76U G117C
# output -3.98

# input Next variant: C85A G117A
# output -2.97

# input Here is the next variant: C8A G36U C82A
# output -0.55

Where these numbers come from: the RNAGym collection of RNA variant scans (doi:10.1073/pnas.2313332121)
